Cited source: the RNAGym collection of RNA variant scans (doi:10.7554/elife.80360)

B1: HDV Ribozyme (parent)
chain: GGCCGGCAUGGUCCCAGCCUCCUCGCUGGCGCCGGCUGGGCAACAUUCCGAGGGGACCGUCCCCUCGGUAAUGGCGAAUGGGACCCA

Variants of: B1
protocolSummary: self-cleavage, relative activity (ratio to wild type); higher = more cleavage; co-transcriptional
endpointName: self-cleavage
Answer with the value's number alone.

variantSpec	self-cleavage
C15U C61U	0.882

Ask: Field request: self-cleavage | item: U9A C75U
Reply: 0.145

Ask: Field request: self-cleavage | item: G59A G67C
Reply: 1.05

Ask: Field request: self-cleavage | item: C21A C41U
Reply: 0.181

Ask: Field request: self-cleavage | item: G55C C58U
Reply: 1.07

Ask: Field request: self-cleavage | item: C21A G74C
Reply: 0.126
